Tgt: human TRPM7 (Homo sapiens)
Sequence (Q96QT4 whole entry): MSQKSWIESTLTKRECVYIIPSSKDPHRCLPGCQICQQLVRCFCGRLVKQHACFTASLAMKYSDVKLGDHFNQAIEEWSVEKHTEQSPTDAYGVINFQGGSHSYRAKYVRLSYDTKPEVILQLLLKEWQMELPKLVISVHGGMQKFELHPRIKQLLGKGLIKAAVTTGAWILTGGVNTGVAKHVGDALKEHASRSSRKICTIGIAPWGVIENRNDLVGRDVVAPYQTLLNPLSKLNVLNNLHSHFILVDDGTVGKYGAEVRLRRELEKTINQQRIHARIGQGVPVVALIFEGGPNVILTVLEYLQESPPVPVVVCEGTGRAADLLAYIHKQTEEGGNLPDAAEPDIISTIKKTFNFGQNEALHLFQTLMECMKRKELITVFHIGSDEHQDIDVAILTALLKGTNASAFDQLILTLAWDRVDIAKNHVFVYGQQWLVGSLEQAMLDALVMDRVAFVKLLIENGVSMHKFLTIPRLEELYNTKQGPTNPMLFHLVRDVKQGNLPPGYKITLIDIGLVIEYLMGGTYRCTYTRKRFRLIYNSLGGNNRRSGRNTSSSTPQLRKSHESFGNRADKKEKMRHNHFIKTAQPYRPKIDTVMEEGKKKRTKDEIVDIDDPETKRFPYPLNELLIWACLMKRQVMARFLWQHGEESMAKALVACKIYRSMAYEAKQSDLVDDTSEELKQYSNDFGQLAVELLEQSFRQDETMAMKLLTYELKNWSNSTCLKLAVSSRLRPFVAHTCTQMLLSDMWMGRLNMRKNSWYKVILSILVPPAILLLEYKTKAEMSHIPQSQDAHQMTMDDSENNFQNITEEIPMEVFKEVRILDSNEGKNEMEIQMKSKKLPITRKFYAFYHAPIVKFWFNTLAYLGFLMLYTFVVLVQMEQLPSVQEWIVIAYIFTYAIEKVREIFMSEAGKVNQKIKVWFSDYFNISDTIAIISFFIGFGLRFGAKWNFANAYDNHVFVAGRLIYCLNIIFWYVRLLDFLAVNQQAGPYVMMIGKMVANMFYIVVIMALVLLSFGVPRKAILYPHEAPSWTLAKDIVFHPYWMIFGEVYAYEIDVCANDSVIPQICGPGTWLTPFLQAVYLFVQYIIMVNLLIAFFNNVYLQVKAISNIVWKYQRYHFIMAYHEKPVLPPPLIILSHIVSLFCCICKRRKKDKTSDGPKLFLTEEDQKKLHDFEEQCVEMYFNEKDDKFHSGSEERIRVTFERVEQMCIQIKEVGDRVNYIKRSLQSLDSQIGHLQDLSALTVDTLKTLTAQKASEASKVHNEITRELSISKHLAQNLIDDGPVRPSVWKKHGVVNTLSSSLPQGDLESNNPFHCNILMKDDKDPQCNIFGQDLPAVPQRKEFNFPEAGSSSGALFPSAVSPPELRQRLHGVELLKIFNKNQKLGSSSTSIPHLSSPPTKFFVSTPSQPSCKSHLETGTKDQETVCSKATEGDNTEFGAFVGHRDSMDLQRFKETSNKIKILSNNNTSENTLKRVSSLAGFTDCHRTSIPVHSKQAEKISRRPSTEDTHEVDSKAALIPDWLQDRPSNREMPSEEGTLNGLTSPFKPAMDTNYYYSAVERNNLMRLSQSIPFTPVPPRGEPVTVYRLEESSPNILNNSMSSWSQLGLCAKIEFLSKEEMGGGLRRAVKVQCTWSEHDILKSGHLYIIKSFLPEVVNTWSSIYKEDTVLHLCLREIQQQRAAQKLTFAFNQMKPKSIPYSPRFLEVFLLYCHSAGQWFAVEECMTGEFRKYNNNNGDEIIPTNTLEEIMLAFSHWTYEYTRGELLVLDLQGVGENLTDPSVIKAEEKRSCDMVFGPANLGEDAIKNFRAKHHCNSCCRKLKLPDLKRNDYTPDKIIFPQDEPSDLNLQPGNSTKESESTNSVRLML
Test method notes: whole-cell patch clamp, current at +[…] mV
Known IC50 of a selection of molecules
Experimental endpoint: IC50 (mM)

[[record]]
molecule = "Cl [chloride]"
val = 99

[[record]]
molecule = "Br [bromide]"
val = 88


----------
Tgt: TRPM7 Δ-kinase (Homo sapiens, UniProt Q96QT4)
Sequence (Q96QT4 1-1569, stated change not applied): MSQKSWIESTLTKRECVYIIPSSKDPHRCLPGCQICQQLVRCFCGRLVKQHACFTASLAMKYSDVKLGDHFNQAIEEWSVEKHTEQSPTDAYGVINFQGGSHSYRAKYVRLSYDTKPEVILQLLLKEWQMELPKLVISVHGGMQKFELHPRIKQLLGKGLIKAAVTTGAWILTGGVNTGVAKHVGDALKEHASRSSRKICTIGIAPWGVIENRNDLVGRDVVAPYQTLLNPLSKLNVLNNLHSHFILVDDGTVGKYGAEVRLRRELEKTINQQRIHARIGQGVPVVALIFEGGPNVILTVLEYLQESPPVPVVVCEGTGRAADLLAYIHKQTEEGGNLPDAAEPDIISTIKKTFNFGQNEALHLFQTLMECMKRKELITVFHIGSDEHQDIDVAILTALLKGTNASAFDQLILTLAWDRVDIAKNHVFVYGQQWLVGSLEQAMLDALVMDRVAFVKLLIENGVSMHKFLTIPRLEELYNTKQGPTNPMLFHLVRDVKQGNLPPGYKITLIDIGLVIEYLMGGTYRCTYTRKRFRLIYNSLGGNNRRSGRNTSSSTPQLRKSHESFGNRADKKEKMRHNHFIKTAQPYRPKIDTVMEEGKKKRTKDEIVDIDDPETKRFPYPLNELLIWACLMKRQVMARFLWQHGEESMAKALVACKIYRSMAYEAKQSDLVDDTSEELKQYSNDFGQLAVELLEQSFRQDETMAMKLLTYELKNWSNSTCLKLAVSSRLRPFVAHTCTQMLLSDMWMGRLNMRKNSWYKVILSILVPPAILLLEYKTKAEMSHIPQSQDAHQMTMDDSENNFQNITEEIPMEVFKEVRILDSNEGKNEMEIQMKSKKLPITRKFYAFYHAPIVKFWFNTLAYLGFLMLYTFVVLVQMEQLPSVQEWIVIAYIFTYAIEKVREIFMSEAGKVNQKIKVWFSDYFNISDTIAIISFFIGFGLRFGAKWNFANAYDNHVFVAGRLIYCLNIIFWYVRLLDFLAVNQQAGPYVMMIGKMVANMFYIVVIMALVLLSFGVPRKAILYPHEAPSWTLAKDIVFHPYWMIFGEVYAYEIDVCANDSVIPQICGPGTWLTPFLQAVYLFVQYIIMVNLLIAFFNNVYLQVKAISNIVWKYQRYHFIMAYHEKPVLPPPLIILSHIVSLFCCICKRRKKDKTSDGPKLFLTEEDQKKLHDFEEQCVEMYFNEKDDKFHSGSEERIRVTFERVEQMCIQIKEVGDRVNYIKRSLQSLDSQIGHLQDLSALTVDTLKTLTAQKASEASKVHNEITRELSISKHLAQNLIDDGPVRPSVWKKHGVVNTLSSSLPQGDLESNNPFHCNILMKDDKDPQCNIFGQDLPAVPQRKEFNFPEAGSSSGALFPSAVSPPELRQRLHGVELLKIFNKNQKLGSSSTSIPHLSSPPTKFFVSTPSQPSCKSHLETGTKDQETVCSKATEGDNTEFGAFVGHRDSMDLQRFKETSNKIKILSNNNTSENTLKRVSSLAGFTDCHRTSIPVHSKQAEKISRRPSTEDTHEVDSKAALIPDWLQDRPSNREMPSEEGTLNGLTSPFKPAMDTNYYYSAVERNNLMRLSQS
Test method notes: whole-cell patch clamp, current at +[…] mV
Experimental endpoint: IC50 (mM)

[[record]]
compound = "I [iodide]"
val = 31

